# target entity: CD71 on SK-BR-3 cells (human, UniProt P02786 1-760)
# Sequence (P02786 whole entry): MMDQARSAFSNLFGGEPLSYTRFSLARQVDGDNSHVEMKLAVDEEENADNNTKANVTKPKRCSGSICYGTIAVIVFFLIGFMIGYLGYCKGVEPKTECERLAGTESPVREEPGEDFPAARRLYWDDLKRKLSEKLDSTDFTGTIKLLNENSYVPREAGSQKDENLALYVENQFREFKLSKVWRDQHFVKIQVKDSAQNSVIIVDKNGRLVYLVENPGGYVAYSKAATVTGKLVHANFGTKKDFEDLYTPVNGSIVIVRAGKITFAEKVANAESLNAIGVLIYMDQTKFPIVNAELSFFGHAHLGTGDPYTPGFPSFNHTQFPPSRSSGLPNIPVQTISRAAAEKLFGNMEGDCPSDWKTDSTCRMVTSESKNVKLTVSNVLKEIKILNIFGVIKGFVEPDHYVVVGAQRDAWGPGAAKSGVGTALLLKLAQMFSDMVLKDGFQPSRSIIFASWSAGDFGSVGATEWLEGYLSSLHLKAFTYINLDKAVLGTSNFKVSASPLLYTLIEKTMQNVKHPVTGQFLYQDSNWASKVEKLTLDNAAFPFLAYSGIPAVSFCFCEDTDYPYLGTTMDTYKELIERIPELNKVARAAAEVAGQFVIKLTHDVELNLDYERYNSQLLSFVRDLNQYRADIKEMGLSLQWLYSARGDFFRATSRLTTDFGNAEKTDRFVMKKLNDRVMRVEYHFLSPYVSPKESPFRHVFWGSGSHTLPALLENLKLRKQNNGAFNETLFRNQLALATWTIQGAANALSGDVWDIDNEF
# run description: cell-based or functional assay
metric name: IC50, SKBR-3 viability, MMAF conjugate, first unlabelled column (+/- human transferrin)
Reply with the number and its unit after it.

{"binder": "SEQ ID NO 307 (designed binder, FN3 domain) MLPAPKNLVVSRVTEDSARLSWTAPDAAFDSFPITYSEPAHYGEAIVLTVPGSERSYDLTGLKPGTEYHVGIMGVKGGVFSSPLSAIFTT", "reported value": "47.9 nM"}

Next:
Query string: Quick check: IC50, SKBR-3 viability, MMAF conjugate, first unlabelled column (+/- human transferrin) of SEQ ID NO 252 (designed binder, FN3 domain) MLPAPKNLVVSRVTEDSARLSWTAPDAAFDSFDIGYTEYGGYGEAIVLTVPGSERSYDLTGLKPGTEYWVLIQGVKGGGSSVPLSAIFTT ?
Result string: 24.6 nM
